This collection of values is drawn from patent US10590193.

# system: T1, human VEGF165 (human, UniProt P15692)
# T1 chain: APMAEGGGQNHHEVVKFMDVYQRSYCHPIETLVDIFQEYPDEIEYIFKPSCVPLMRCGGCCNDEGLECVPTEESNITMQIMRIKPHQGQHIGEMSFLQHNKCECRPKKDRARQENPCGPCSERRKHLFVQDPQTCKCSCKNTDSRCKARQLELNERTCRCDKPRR
# protocol.text: SPR, pH 5
observed.property: Kd (nM)
Answers are plain numbers, in nM.

Use these answered entries as a reference point.
578min_max T84N (991) (antibody, V domains shown) VH: EVQLVESGGGLVQPGGSLRLSCTASGFSLTDYYYMTWVRQAPGKGLEWVGFIDPDDDPYYATWAKGRFTISRDNSKNTVYLQMNSLRAEDTAVYYCAGGDHNSGWGLDIWGQGTLVTVSS VL: EIVMTQSPSTLSASVGDRVIITCQASEIIHSWLAWYQQKPGKAPKLLIYLASTLASGVPSRFSGSGSGAEFTLTISSLQPDDFATYYCQNVYLASTNGANFGQGTKLTVLG
0.971
578min_max V89A (978) (antibody, V domains shown) VH: EVQLVESGGGLVQPGGSLRLSCTASGFSLTDYYYMTWVRQAPGKGLEWVGFIDPDDDPYYATWAKGRFTISRDTSKNTAYLQMNSLRAEDTAVYYCAGGDHNSGWGLDIWGQGTLVTVSS VL: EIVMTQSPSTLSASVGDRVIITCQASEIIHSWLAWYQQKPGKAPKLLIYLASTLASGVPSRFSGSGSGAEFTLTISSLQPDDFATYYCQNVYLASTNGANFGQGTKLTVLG
1.2
511max_min (905) (antibody, V domains shown) VH: EVQLVESGGGLVQPGGSLRLSCAASGFSLNTYYMNWVRQAPGKGLEWVSIIAPDDTTYYASWAKSRFTISRDNSKNTLYLQMNSLRAEDTAVYYCAKSGDTTAWGADIWGQGTLVTVSS VL: EIVMTQSPSTLSASVGDRVIITCQASQSINIWLSWYQQKPGKAPKLLIYRASTLASGVPSRFSGSGSGTEFTLTISSLQPDDFATYYCQANYAYSAGYGAAFGQGTKLTVLG
1.48
578minmax FW1.4_DHP (961) (antibody, V domains shown) VH: EVQLVESGGGSVQPGGSLRLSCTASGFSLTDYYYMTWVRQAPGKGLEWVGFIDPDDDPYYATWAKGRFTISRDTSKNTVYLQMNSLRAEDTATYYCAGGDHNSGWGLDIWGQGTTVTVSS VL: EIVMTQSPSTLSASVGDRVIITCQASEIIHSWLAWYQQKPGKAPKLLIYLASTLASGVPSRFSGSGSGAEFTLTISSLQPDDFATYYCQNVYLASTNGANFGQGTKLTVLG
0.576
578min_max T84N_V89L (1008) (antibody, V domains shown) VH: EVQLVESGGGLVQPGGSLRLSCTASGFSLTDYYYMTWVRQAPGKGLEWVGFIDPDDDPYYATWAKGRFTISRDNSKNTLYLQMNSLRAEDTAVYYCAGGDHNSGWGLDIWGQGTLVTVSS VL: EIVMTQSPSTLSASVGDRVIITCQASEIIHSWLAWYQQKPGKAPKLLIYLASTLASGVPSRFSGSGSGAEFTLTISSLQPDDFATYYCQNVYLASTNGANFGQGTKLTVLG
1.59

Hey, quick one: what's Kd for each of these?
1. 578 wildtype C-His (798) (antibody, V domains shown) VH: QSVEESGGRLVTPGTPLTLTCTASGFSLTDYYYMTWVRLAPGKGLEYIGFIDPDDDPYYATWAKGRFTISRTSTTVNLKMTSPTTEDTATYFCAGGDHNSGWGLDIWGPGTLVTVSL VL: DVVMTQTPSSVSAAVGDTVTINCQASEIIHSWLAWYQQKPGQPPKLLIYLASTLASGVPSRFKGSGSGTQFTLTISDLECADAAIYYCQNVYLASTNGANFGGGTEVVVK
2. 578minmax (903) (antibody, V domains shown) VH: EVQLVESGGGLVQPGGSLRLSCTASGFSLTDYYYMTWVRQAPGKGLEWVGFIDPDDDPYYATWAKGRFTISRDTSKNTVYLQMNSLRAEDTAVYYCAGGDHNSGWGLDIWGQGTLVTVSS VL: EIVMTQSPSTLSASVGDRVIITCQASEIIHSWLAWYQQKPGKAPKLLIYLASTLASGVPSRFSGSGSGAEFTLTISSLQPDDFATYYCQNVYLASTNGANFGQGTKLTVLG
3. 578min_max T84N_V89A (1009) (antibody, V domains shown) VH: EVQLVESGGGLVQPGGSLRLSCTASGFSLTDYYYMTWVRQAPGKGLEWVGFIDPDDDPYYATWAKGRFTISRDNSKNTAYLQMNSLRAEDTAVYYCAGGDHNSGWGLDIWGQGTLVTVSS VL: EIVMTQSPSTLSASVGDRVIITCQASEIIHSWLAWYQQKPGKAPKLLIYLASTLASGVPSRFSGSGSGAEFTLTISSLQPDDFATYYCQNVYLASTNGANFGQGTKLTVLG
4. 511min_max (904) (antibody, V domains shown) VH: EVQLVESGGGLVQPGGSLRLSCTVSGFSLNTYYMNWVRQAPGKGLEWVGIIAPDDTTYYASWAKSRSTISRDTSKNTVYLQMNSLRAEDTAVYYCARSGDTTAWGADIWGQGTLVTVSS VL: EIVMTQSPSTLSASVGDRVIITCQASQSINIWCSWYQQKPGKAPKLLIYRASTLASGVPSRFSGSGSGAEFTLTISSLQPDDFATYYCQANYAYSAGYGAAFGQGTKLTVLG
5. 578-max FW1.4_DHP (960) (antibody, V domains shown) VH: EVQLVESGGGSVQPGGSLRLSCTASGFSLTDYYYMTWVRQAPGKGLEWVGFIDPDDDPYYATWAKGRFTISRDTSKNTVYLQMNSLRAEDTATYYCAGGDHNSGWGLDIWGQGTTVTVSS VL: EIVMTQSPSTLSASVGDRVIITCQASEIIHSWLAWYQQKPGKAPKLLIYLASTLASGVPSRFSGSGSGTQFTLTISSLQPDDFATYYCQNVYLASTNGANFGQGTKLTVLG
6. 578min_max V89L (980) (antibody, V domains shown) VH: EVQLVESGGGLVQPGGSLRLSCTASGFSLTDYYYMTWVRQAPGKGLEWVGFIDPDDDPYYATWAKGRFTISRDTSKNTLYLQMNSLRAEDTAVYYCAGGDHNSGWGLDIWGQGTLVTVSS VL: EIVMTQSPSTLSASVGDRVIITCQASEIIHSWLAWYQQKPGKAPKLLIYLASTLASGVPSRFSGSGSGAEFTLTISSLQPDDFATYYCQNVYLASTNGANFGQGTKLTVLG

Result:
1: 0.2; 2: 0.625; 3: 0.615; 4: 0.278; 5: 0.266; 6: 2.13
